target-of-assay: p38α (as used in the fluorescence polarization titrations) (human, UniProt Q16539 1-360)
Sequence (Q16539 whole entry): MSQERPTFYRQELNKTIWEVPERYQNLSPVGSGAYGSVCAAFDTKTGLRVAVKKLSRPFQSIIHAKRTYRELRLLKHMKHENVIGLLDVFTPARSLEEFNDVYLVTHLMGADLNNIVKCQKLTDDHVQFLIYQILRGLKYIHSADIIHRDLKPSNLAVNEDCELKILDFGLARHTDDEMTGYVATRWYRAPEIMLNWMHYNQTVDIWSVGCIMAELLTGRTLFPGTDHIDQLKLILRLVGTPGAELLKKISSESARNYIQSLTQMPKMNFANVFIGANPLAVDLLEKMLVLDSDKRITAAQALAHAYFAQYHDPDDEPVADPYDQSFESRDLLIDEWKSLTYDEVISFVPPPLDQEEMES
test-summary: FP
pKd: −log10 of the molar value. Ends that are not written are not given here.
measurement-type: pKd

KEKSGSLKLRIP (not fully specified) [CCNT2 peptide]
4.61

I: RKHKDLYLPL (not fully specified) [DCX peptide]
II: KKKSKPLNLKIH (not fully specified) [KSR2 peptide]
III: LQRKKPPWLKLDIP (not fully specified) [RHDF1 peptide]
Request: Put the binders in ascending order of pKd. Form field (ranking): labels in requested order.
Response: I, II, III
